# ASSAY_TARGET: UniProt:Q9Y6E0
# Sequence (Q9Y6E0 whole entry, looked up): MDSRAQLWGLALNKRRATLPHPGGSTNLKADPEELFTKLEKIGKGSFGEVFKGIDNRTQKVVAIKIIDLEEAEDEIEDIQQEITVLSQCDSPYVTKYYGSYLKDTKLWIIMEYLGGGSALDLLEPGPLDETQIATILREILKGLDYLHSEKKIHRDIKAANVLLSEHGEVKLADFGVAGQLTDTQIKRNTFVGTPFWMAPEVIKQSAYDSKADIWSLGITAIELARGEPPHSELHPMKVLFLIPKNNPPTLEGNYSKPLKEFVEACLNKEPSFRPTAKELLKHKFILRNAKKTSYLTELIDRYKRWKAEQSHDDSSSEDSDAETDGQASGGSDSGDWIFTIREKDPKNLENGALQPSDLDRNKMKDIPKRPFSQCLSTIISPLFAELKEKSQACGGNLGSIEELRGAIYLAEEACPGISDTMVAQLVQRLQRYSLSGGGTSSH
# EXPERIMENT_DESCRIPTION: radiometric filter-binding kinase assay, Kinase HotSpot
# MEASUREMENT_CONDITIONS: compound 0.5 µM; ATP 10 µM
Hi! Just check whether residual activity is below 80%. Below gives True, equal or above gives False.

Below, 2 compounds whose answers are already recorded.
>  <COMPOUND>
CCN(CC)CCNC(=O)c1c(C)[nH]c(/C=C2\C(=O)Nc3ccc(Cl)cc32)c1C

>  <GROUP_LABEL>
True

$$$$
>  <COMPOUND>
CC#CC(=O)Nc1cc2c(Nc3ccc(F)c(Cl)c3)ncnc2cn1

>  <GROUP_LABEL>
False

$$$$

Input line: Is the reported residual activity for "CCOC(=O)c1c(C)[nH]c(/C=C2\C(=O)Nc3ccccc32)c1C" strictly below 80%?
Output line: False

Input line: Is the reported residual activity for "Cc1ccc(NC2=CC(=O)c3sc(C)nc3C2=O)cc1" strictly below 80%?
Output line: False

Input line: Is the reported residual activity for "CNc1cc2c(Nc3cccc(Br)c3)ncnc2cn1" strictly below 80%?
Output line: False

Input line: Is the reported residual activity for "N#C/C(=C(/N)Sc1ccc(N)cc1)c1ccccc1C(F)(F)F" strictly below 80%?
Output line: False

Input line: Is the reported residual activity for "Cc1ccc(S(=O)(=O)/C=C/C#N)cc1" strictly below 80%?
Output line: False

Input line: Is the reported residual activity for "Nc1cccc(-c2cc3c(Oc4cccc(O)c4)ncnc3[nH]2)c1" strictly below 80%?
Output line: True

---

# ASSAY_TARGET: UniProtKB P51957
# Sequence (P51957 whole entry, looked up): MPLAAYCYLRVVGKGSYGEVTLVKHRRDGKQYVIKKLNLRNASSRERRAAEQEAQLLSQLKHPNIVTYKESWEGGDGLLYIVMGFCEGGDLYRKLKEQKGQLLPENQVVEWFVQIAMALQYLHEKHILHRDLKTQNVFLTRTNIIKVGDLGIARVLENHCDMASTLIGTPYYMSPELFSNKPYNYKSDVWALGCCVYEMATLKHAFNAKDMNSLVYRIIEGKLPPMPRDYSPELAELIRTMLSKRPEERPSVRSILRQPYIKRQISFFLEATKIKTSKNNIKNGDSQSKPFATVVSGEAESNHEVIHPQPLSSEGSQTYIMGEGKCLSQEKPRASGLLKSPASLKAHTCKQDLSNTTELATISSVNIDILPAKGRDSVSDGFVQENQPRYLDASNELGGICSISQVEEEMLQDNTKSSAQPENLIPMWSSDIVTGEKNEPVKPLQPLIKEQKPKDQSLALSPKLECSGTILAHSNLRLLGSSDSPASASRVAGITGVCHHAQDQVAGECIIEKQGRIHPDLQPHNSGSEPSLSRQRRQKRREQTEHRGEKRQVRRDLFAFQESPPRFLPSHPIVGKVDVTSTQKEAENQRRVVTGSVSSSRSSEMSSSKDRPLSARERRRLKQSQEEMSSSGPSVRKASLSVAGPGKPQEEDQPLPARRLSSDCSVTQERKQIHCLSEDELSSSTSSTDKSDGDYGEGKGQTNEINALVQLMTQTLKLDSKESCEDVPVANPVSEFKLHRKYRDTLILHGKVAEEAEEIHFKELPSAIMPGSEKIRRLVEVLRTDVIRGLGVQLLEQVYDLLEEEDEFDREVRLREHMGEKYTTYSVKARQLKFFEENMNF
# EXPERIMENT_DESCRIPTION: radiometric filter-binding kinase assay, Kinase HotSpot
# MEASUREMENT_CONDITIONS: compound 0.5 µM; ATP 10 µM
OBSERVATION_TYPE: residual activity (%)
Answer format: numeric, % implied, no suffix.

Field: example entries. Status: answers known.
>  <SMILES_RECORD>
O=c1cc(N2CCOCC2)oc2c1ccc1ccccc12

>  <MEASUREMENT_UNIT>
%

>  <MEASURED_RESULT>
97.4

$$$$
>  <SMILES_RECORD>
N#CC(C#N)=C(N)/C(C#N)=C/c1ccc(O)cc1

>  <MEASUREMENT_UNIT>
%

>  <MEASURED_RESULT>
93.3

$$$$
>  <SMILES_RECORD>
COc1ccc2c(c[n+](C)c3c4cc5c(cc4ccc23)OCO5)c1OC

>  <MEASUREMENT_UNIT>
%

>  <MEASURED_RESULT>
96.6

$$$$
>  <SMILES_RECORD>
O=S(=O)(c1cccc2cnccc12)N1CCCNCC1

>  <MEASUREMENT_UNIT>
%

>  <MEASURED_RESULT>
90.7

$$$$
>  <SMILES_RECORD>
O=C1Nc2ccc(Cl)cc2/C1=C/c1cc(Cl)c(O)c(Cl)c1

>  <MEASUREMENT_UNIT>
%

>  <MEASURED_RESULT>
88.2

$$$$
>  <SMILES_RECORD>
Nc1ncnc2[nH]nc(Nc3ccc(F)cc3)c12

>  <MEASUREMENT_UNIT>
%

>  <MEASURED_RESULT>
92.8

$$$$

Input line: Please tell me the measured residual activity for "CCN(CC)CCNC(=O)c1c(C)[nH]c(/C=C2\C(=O)Nc3ccc(F)cc32)c1C" ; system: UniProtKB P51957.
Output line: 94.1

Input line: Please tell me the measured residual activity for "CC[n+]1c(/C=C/N(C)c2ccccc2)n(-c2ccccc2)c2ccc(-c3nc4ccccc4s3)cc21" ; system: UniProtKB P51957.
Output line: 90.5

Input line: Please tell me the measured residual activity for "N#C/C(=C(/N)Sc1ccc(N)cc1)c1ccccc1C(F)(F)F" ; system: UniProtKB P51957.
Output line: 95.9

Input line: Please tell me the measured residual activity for "c1ccc(-c2n[nH]cc2-c2ccnc3ccccc23)nc1" ; system: UniProtKB P51957.
Output line: 95.8

Input line: Please tell me the measured residual activity for "Cc1[nH]c(/C=C2\C(=O)Nc3ccc(S(=O)(=O)N(C)c4cccc(Cl)c4)cc32)c(C)c1C(=O)N1CCN(C)CC1" ; system: UniProtKB P51957.
Output line: 79.7

Sourced from the kinase profiling compilation of Christmann-Franck et al. (2016)
